assay.context: human, whole blood, pH 7.4
Where a SMILES comes first, the peptide text is derived from it.
property.measured: half-life (h)
Note: unit h is implicit; provide only the numeric part.

## Task Item Cc1cc(C)c2c(c1)OC(=O)[C@H](C)NC(=O)[C@H](CC(=O)O)NC(=O)CNC(=O)CNC(=O)[C@H](C)NC(=O)[C@H](Cc1c[nH]c3ccccc13)NC(=O)CC2(C)C [1b] (HELM PEPTIDE1{W.A.G.G.D.A}|CHEM1{[Cc1cc(C)c(C(C)(C)CC(=O)[*:1])c(O[*:2])c1]}$PEPTIDE1,CHEM1,1:R1-1:R1|PEPTIDE1,CHEM1,6:R2-1:R2$$$V2.0) has what recorded half-life?
## Result 2.88
